B1: NEUROD6 (parent)
chain: YHSPELTTPPGHGTLDNSKSMKPY

- Variants of: B1
- Protocol Summary: protein stability index of a GFP-peptide fusion (GPS, HEK-293T) (PSI 1-6); higher = more stable;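 note: lentivirally expressed fusions sorted by FACS into six bins by GFP to DsRed ratio, PSI derived from sequencing read proportions per bin multiplied by bin number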
- Experimental Parameters: c terminus: a fixed tail appended
Measured protein stability index values are reported for all entries that follow.
Quick one: just the number, no unit, thanks!

// worked examples, protein stability index included
{"columns": ["Entry Sequence", "Value Observed"],
 "data": [
  ["YHSPELTTPPGHGTLDRSKSMKPY [N17R]", 2.01],
  ["YHSPELTTPPGHGTLDNSKSMYPY [K22Y]", 1.83],
  ["YHSPELTRPPGHGTLDNSKSMKPY [T8R]", 2.35],
  ["YHSPELTTLPGHGTLDNSKSMKPY [P9L]", 2.64],
  ["YHSPELTTPPNHGTLDNSKSMKPY [G11N]", 2.39],
  ["YHSPELTEPPGHGTLDNSKSMKPY [T8E]", 3.34]
]}

--- query ---
// sample YHSPELTTKPGHGTLDNSKSMKPY [P9K] , its protein stability index was 2.45
